Test system: EKVX
Assay: relative viability (nuclei count vs DMSO), 5 days (fraction); higher = more cells survive
Conditions: first compound 8 µM
endpoint: relative viability

{"molecule": "CCCCCCCCCCCC1=C(O)C(=O)C=C(O)C1=O [Embelin] + N=C(N)NC(=N)NCCc1ccccc1 [Phenformin] (partner 250 µM)", "measured on": "EKVX", "observed result": 0.247}
{"molecule": "CCCCCCCCCCCC1=C(O)C(=O)C=C(O)C1=O [Embelin] + Cc1cc(Nc2cc(N3CCN(C)CC3)nc(Sc3ccc(NC(=O)C4CC4)cc3)n2)n[nH]1 [Tozasertib] (partner 0.1 µM)", "measured on": "EKVX", "observed result": 0.417}
{"molecule": "CCCCCCCCCCCC1=C(O)C(=O)C=C(O)C1=O [Embelin] + CC(=O)c1c(C)c2cnc(Nc3ccc(N4CCNCC4)cn3)nc2n(C2CCCC2)c1=O [Palbociclib] (partner 0.5 µM)", "measured on": "EKVX", "observed result": 0.394}
{"molecule": "CCCCCCCCCCCC1=C(O)C(=O)C=C(O)C1=O [Embelin] + O=C(CCCCCCC(=O)Nc1ccccc1)NO [Vorinostat] (partner 1 µM)", "measured on": "EKVX", "observed result": 0.754}

---

System: NCI-H1650
Experiment: relative viability (nuclei count vs DMSO), 5 days (fraction); higher = more cells survive
Details: first compound 0.3162 µM
relative viability values by entry
endpoint: relative viability

{"compound": "CC(C)Oc1cc(Nc2nc(N[C@@H](C)c3ccc(F)cn3)ncc2Cl)n[nH]1 [AZ23] + CS(=O)(=O)CCNCc1ccc(-c2ccc3ncnc(Nc4ccc(OCc5cccc(F)c5)c(Cl)c4)c3c2)o1 [Lapatinib] (partner 2 µM)", "endpoint": "relative viability", "observed result": 0.54}
{"compound": "CC(C)Oc1cc(Nc2nc(N[C@@H](C)c3ccc(F)cn3)ncc2Cl)n[nH]1 [AZ23] + CC1(C)CCC(c2ccc(Cl)cc2)=C(CN2CCN(c3ccc(C(=O)NS(=O)(=O)c4ccc(N[C@H](CCN5CCOCC5)CSc5ccccc5)c(S(=O)(=O)C(F)(F)F)c4)cc3)CC2)C1 [Navitoclax] (partner 0.5 µM)", "endpoint": "relative viability", "observed result": 1.05}
{"compound": "CC(C)Oc1cc(Nc2nc(N[C@@H](C)c3ccc(F)cn3)ncc2Cl)n[nH]1 [AZ23] + O=C(c1cc(Cc2n[nH]c(=O)c3ccccc23)ccc1F)N1CCN(C(=O)C2CC2)CC1 [Olaparib] (partner 8 µM)", "endpoint": "relative viability", "observed result": 0.876}
{"compound": "CC(C)Oc1cc(Nc2nc(N[C@@H](C)c3ccc(F)cn3)ncc2Cl)n[nH]1 [AZ23] + COc1cc2c(Oc3ccc(NC(=O)C4(C(=O)Nc5ccc(F)cc5)CC4)cc3F)ccnc2cc1OCCCN1CCOCC1 [Foretinib] (partner 0.25 µM)", "endpoint": "relative viability", "observed result": 1.23}

---

Tested on: NCI-H1975
Assay: relative viability (nuclei count vs DMSO), 5 days (fraction); higher = more cells survive
Details: first compound 0.4 µM
Response field label: string, one of Met (relative viability strictly below 0.7) or Not met.

{"compound": "Clc1ccc(Nc2nnc(Cc3ccncc3)c3ccccc23)cc1 [Vatalanib] + C[C@]1(O)C[C@@H](c2nc(-c3ccc4ccc(-c5ccccc5)nc4c3)c3c(N)nccn32)C1 [Linsitinib] (partner 1 µM)", "label value": "Not met"}
{"compound": "C[C@@H]1CN(CC(=O)Nc2ccc3c(c2)Cc2cccc(-c4cc(=O)cc(N5CCOCC5)o4)c2S3)C[C@H](C)O1 + COc1cccc2cc(-c3nc([C@H]4CC[C@H](C(=O)O)CC4)n4ncnc(N)c34)[nH]c12 [OSI-027] (partner 0.5 µM)", "label value": "Met"}
{"compound": "C[C@@H]1CN(CC(=O)Nc2ccc3c(c2)Cc2cccc(-c4cc(=O)cc(N5CCOCC5)o4)c2S3)C[C@H](C)O1 + COc1cc2c(Oc3ccc(NC(=O)C4(C(=O)Nc5ccc(F)cc5)CC4)cc3F)ccnc2cc1OCCCN1CCOCC1 [Foretinib] (partner 0.25 µM)", "label value": "Not met"}
{"compound": "C[C@@H]1CN(CC(=O)Nc2ccc3c(c2)Cc2cccc(-c4cc(=O)cc(N5CCOCC5)o4)c2S3)C[C@H](C)O1 + Cc1cc(Nc2cc(N3CCN(C)CC3)nc(Sc3ccc(NC(=O)C4CC4)cc3)n2)n[nH]1 [Tozasertib] (partner 0.1 µM)", "label value": "Met"}
{"compound": "C[C@@H]1CN(CC(=O)Nc2ccc3c(c2)Cc2cccc(-c4cc(=O)cc(N5CCOCC5)o4)c2S3)C[C@H](C)O1 + C[C@]1(O)C[C@@H](c2nc(-c3ccc4ccc(-c5ccccc5)nc4c3)c3c(N)nccn32)C1 [Linsitinib] (partner 1 µM)", "label value": "Not met"}
{"compound": "COc1cc(N2CCC(C(N)=O)CC2)ccc1Nc1nc(N)c(Cl)c(Nc2ccccc2S(=O)(=O)C(C)C)n1 [HG-5-88-01] + N=C(N)NC(=N)NCCc1ccccc1 [Phenformin] (partner 250 µM)", "label value": "Met"}
